molecular target: human RORγt LBD fused to the DNA binding domain of the GAL4 protein (Homo sapiens (Human), UniProt P51449); test: RORγt (LBD) reporter assay in HEK293T cells; assay type: cell-based; settings: @ 6 μM
Sequence (P51449 258-518): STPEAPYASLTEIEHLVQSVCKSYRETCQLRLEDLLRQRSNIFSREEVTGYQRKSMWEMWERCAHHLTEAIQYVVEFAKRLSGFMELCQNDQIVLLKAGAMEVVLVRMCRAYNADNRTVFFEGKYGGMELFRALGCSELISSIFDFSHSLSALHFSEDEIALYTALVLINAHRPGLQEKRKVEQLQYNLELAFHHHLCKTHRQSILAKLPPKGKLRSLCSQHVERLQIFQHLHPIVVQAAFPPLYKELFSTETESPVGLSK
Respond with criterion met for RORγt (LBD) Reporter Assay, % inhibition @ 6 μM values of 50% and above, criterion not met for values below.

hey, is RORγt (LBD) Reporter Assay, % inhibition @ 6 μM for this one >= 50%? COc1nc2ccc(C(O)(c3ccc(C)nc3C)c3cnnn3C)cc2c(Cl)c1CN1CCC(F)CC1 (single isomer, unassigned) [Example 108b] criterion not met

Answer whether RORγt (LBD) Reporter Assay, % inhibition @ 6 μM of COc1nc2ccc(C(O)(c3ccc(C)nc3C)c3cnnn3C)cc2c(Cl)c1OCC1CC1 (single isomer, unassigned) [Example 68b] is greater than or equal to 50%. criterion met

# bool: RORγt (LBD) Reporter Assay, % inhibition @ 6 μM of COc1nc2ccc(C(O)(c3ccc(C)nc3C)c3cnnn3C)cc2c(Cl)c1CC1CC1 (single isomer, unassigned) [Example 14b] >= 50% criterion met

Determine whether this molecule has RORγt (LBD) Reporter Assay, % inhibition @ 6 μM no lower than 50%: COc1nc2ccc(C(O)(c3ccc(C(F)(F)F)nc3)c3cncn3C)cc2c(Cl)c1OCc1cccnc1 (single isomer, unassigned) [Example 76b] criterion not met

I'd appreciate it if you could say whether COc1nc2ccc(C(O)(c3ccc(C)nc3C)c3cnnn3C)cc2c(Cl)c1OCC1CC1(F)F (single isomer, unassigned) [Example 72c] has RORγt (LBD) Reporter Assay, % inhibition @ 6 μM at least equal to 50%. criterion met

Form field: RORγt (LBD) Reporter Assay, % inhibition @ 6 μM at least 50%? Entry: COc1nc2ccc(C(O)(c3ccc(C)nc3C)c3cnnn3C)cc2c(Cl)c1OCC1CC1(F)F (single isomer, unassigned) [Example 72b] criterion met

Does RORγt (LBD) Reporter Assay, % inhibition @ 6 μM meet or surpass 50% for COc1nc2ccc(C(O)(c3ccnc(C(F)(F)F)c3)c3cncn3C)cc2c(Cl)c1CN1CCC(C(F)(F)F)CC1 (single isomer, unassigned) [Example 100c] ? criterion met

For this molecule, is measured RORγt (LBD) Reporter Assay, % inhibition @ 6 μM 50% or higher? COc1nc2ccc(C(O)(c3ccc(C)nc3C)c3cnnn3C)cc2c(Cl)c1CC1CC1 (single isomer, unassigned) [Example 14c] criterion met

Kindly determine if RORγt (LBD) Reporter Assay, % inhibition @ 6 μM recorded for COc1nc2ccc(C(O)(c3ccc(C)nc3C)c3cnnn3C)cc2c(Cl)c1CC1CCC(F)(F)CC1 (single isomer, unassigned) is above or exactly 50%. criterion met

Hi team, for COc1nc2ccc(C(O)(c3cnnn3C)c3cnc(C)n3C)cc2c(Cl)c1CN1CCC(C(F)(F)F)CC1 (single isomer, unassigned) [Example 106c] , is the recorded RORγt (LBD) Reporter Assay, % inhibition @ 6 μM at or above 50%? criterion met

I'd appreciate it if you could say whether COc1nc2ccc(C(O)(c3ccc(C)nc3C)c3cnnn3C)cc2c(Cl)c1C (single isomer, unassigned) [Example 12b] has RORγt (LBD) Reporter Assay, % inhibition @ 6 μM at least equal to 50%. criterion not met

Test whether the molecule COc1nc2ccc(C(O)(c3ccc(C)nc3C)c3cnnn3C)cc2c(Cl)c1CN1CCC(F)(F)CC1 (single isomer, unassigned) [Example 107c] records RORγt (LBD) Reporter Assay, % inhibition @ 6 μM of 50% or higher. criterion met

---

target: human RORγt ligand binding domain (RORγt LBD) (Homo sapiens (Human)); test: RORγt ThermoFluor assay (thermal shift, binding affinity Kd); details: read-out: ThermoFluor Assay, Kd
Sequence (P51449 other isoform, or with tags, fused parts or gaps): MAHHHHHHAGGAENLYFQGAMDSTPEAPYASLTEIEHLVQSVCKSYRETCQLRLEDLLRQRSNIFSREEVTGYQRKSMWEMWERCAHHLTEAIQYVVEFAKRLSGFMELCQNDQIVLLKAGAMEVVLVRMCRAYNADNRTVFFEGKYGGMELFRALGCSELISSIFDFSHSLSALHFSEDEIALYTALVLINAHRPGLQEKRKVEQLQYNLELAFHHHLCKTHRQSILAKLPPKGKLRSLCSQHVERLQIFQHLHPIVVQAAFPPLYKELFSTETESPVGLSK
Answer each item with its documented pKd.
The value called pKd is obtained by taking minus log10 of the concentration in mol/L.

Dear colleague, I am looking for the recorded pKd of the following molecule: COc1nc2ccc(C(O)(c3ccc(C)nc3C)c3cnnn3C)cc2c(Cl)c1C(=O)N1CCC(C(F)(F)F)CC1 (stereo not shown) 6.44

I'd like to know its pKd. The molecule in question is COc1nc2ccc(C(O)(c3cnc(C)n3C)c3cnc(C)n3C)cc2c(Cl)c1OC1CCCN(C)C1 (single isomer, unassigned) [Example 51b] 5.52

I would be grateful if you could share the reported pKd for COc1nc2ccc(C(O)(c3cncn3C)C3CCN(S(C)(=O)=O)CC3)cc2c(Cl)c1CC1CCOCC1 (stereo not shown) [Example 6a] . 6.66

Name the reported pKd value associated with the molecule COc1nc2ccc(C(O)(c3ccccc3)C3CCN(C(C)=O)CC3)cc2c(Cl)c1CC1CCOCC1 (stereo not shown) 7.80

---

molecular target: human RORγt LBD fused to the DNA binding domain of the GAL4 protein (Homo sapiens (Human), UniProt P51449); experiment: RORγt (LBD) reporter assay in HEK293T cells; type: cell-based; settings: HEK-293T, read-out: RORγt (LBD) Reporter Assay, % inhibition @ 6 μM, @ 6 μM
Experimental endpoint: inhibition at 6 µM (%)
Give your result in % as a bare value.

Requested read-out: inhibition at 6 µM. Entry: COc1nc2ccc(C(O)(c3cnnn3C)c3cnc(C)n3C)cc2c(Cl)c1CN1CCC(C(F)(F)F)CC1 (single isomer, unassigned) [Example 106b] 103

For the compound shown here, COc1nc2ccc(C(O)(c3ccc(C)nc3C)c3cnnn3C)cc2c(Cl)c1CC1CC1 (stereo not shown) [Example 14a] , give the reported inhibition at 6 µM. 99

// query inhibition at 6 µM value for entry COc1nc2ccc(C(O)(c3cnc(C)n3C)c3cnc(C)n3C)cc2c(Cl)c1OC1CCCN(C)C1 (single isomer, unassigned) [Example 51c] -4

Using the record for COc1nc2ccc(C(O)(c3ccc(C)nc3C)c3cnnn3C)cc2c(Cl)c1CN1CCC(C(F)(F)F)CC1 (single isomer, unassigned) [Example 103b] , report its inhibition at 6 µM. 90

Form field: reported inhibition at 6 µM of COc1nc2ccc(C(O)(c3ccc(C)nc3C)c3cnnn3C)cc2c(Cl)c1C (stereo not shown) [Example 12a] 93

Look up inhibition at 6 µM: COc1nc2ccc(C(O)(c3cncn3C)C3CCN(S(C)(=O)=O)CC3)cc2c(Cl)c1CC1CCOCC1 (single isomer, unassigned) [Example 6b] 17

May I ask what inhibition at 6 µM has been recorded for COc1nc2ccc(C(O)(c3ccc(C)nc3C)c3cnnn3C)cc2c(Cl)c1OCc1ncccn1 (stereo not shown) [Example 66a] ? -112

---

molecular target: human RORγt LBD fused to the DNA binding domain of the GAL4 protein (Homo sapiens (Human), UniProt P51449); assay: RORγt (LBD) reporter assay in HEK293T cells; assay type: cell-based; design: dose or concentration left out as unconfirmed
I'd be grateful if you could share measured RORγt (LBD) Reporter Assay, % inhibition for these entries.
Response body: numeric value in %, unit text excluded.

For COc1nc2ccc(C(O)c3cnc(C)n3C)cc2c(Cl)c1OC(C)C (stereo not drawn) , what is its reported RORγt (LBD) Reporter Assay, % inhibition? 34

For the molecule shown here, COc1nc2ccc(C(O)(c3ccc(C)nc3C)c3cnnn3C)cc2c(Cl)c1C1CCCC1 (single isomer, unassigned) [Example 136b] , give the reported RORγt (LBD) Reporter Assay, % inhibition. 76

Param item = COc1nc2ccc(C(O)(c3ccc(C)nc3C)c3cnnn3C)cc2c(Cl)c1CC(F)(F)F (single isomer, unassigned) [Example 143c] ; retrieve measured RORγt (LBD) Reporter Assay, % inhibition. 100

Consider the molecule shown here: COc1nc2ccc(C(O)(c3ccc(C)nc3C)c3cnnn3C)cc2c(Cl)c1CC(F)(F)F (single isomer, unassigned) [Example 143b] What is its recorded RORγt (LBD) Reporter Assay, % inhibition? 77

Name the recorded RORγt (LBD) Reporter Assay, % inhibition for Cc1ccc(C(O)(c2ccc3nc(Cl)c(CC(F)(F)F)c(N4CCC4)c3c2)c2cnnn2C)c(C)n1 (stereo not drawn) [Example 238a] . −8

Tell me the measured RORγt (LBD) Reporter Assay, % inhibition of COc1nc2ccc(C(O)(c3ccc(C)nc3C)c3cnnn3C)cc2c(Cl)c1CC(C)C (stereo not drawn) [Example 133a] , please. 98

// returns reported RORγt (LBD) Reporter Assay, % inhibition for input COc1nc2ccc(C(O)(c3ccc(C)nc3C)c3cnnn3C)cc2c(Cl)c1C1CCCC1 (single isomer, unassigned) [Example 136c] 98

Using the record for Cc1ncc(C(O)c2ccc3nc(Cl)c(OC(C)C)c(Cl)c3c2)n1C (stereo not drawn) , report its RORγt (LBD) Reporter Assay, % inhibition. 12

What value of RORγt (LBD) Reporter Assay, % inhibition has been reported for the following molecule? COc1nc2ccc(C(O)(c3ccc(C)nc3C)c3cnnn3C)cc2c(Cl)c1CC(C)C (single isomer, unassigned) [Example 133b] 90

Requested field: RORγt (LBD) Reporter Assay, % inhibition. Item: COc1nc2ccc(C(O)(c3ccc(C)nc3C)c3cnnn3C)cc2c(Cl)c1C1CCCC1 (stereo not drawn) [Example 136a] 97

Could you share which RORγt (LBD) Reporter Assay, % inhibition value was measured for Cc1ccc(C(O)(c2ccc3nc(Cl)c(CC(F)(F)F)c(N4CCC4)c3c2)c2cnnn2C)c(C)n1 (single isomer, unassigned) [Example 238b] ? 9

Looking for the measured RORγt (LBD) Reporter Assay, % inhibition of COc1nc2ccc(C(O)(c3ccc(C)nc3C)c3cnnn3C)cc2c(Cl)c1CC(C)C (single isomer, unassigned) [Example 133c] , can you help? 98
